B1: library; a variant is named by its letters at N, in order (parent)
chain: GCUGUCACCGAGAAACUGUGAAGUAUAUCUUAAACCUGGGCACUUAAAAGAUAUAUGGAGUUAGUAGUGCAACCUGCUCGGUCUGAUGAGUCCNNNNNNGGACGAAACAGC

Variants of: B1
Experiment: FACS-Seq fitted mean relative fluorescence mCherry/BFP without ligand (log10 relative fluorescence); HEK293T; ligand: cyclic di-GMP (c-di-GMP-II aptamer); higher = higher reporter protein expression
Details: ligand present: no
Reported values of FACS-Seq fitted mean (log10) for individual entries
No unit in the answer, please; the number alone is enough.

GCUGUCACCGAGAAACUGUGAAGUAUAUCUUAAACCUGGGCACUUAAAAGAUAUAUGGAGUUAGUAGUGCAACCUGCUCGGUCUGAUGAGUCCCAUAUAGGACGAAACAGC [CAUAUA]	-0.483
GCUGUCACCGAGAAACUGUGAAGUAUAUCUUAAACCUGGGCACUUAAAAGAUAUAUGGAGUUAGUAGUGCAACCUGCUCGGUCUGAUGAGUCCAUUGUAGGACGAAACAGC [AUUGUA]	-0.397
GCUGUCACCGAGAAACUGUGAAGUAUAUCUUAAACCUGGGCACUUAAAAGAUAUAUGGAGUUAGUAGUGCAACCUGCUCGGUCUGAUGAGUCCAUUCGGGGACGAAACAGC [AUUCGG]	-0.4
GCUGUCACCGAGAAACUGUGAAGUAUAUCUUAAACCUGGGCACUUAAAAGAUAUAUGGAGUUAGUAGUGCAACCUGCUCGGUCUGAUGAGUCCUAGAAUGGACGAAACAGC [UAGAAU]	-0.456
GCUGUCACCGAGAAACUGUGAAGUAUAUCUUAAACCUGGGCACUUAAAAGAUAUAUGGAGUUAGUAGUGCAACCUGCUCGGUCUGAUGAGUCCCAACAUGGACGAAACAGC [CAACAU]	-0.377

So for GCUGUCACCGAGAAACUGUGAAGUAUAUCUUAAACCUGGGCACUUAAAAGAUAUAUGGAGUUAGUAGUGCAACCUGCUCGGUCUGAUGAGUCCGCGUAGGGACGAAACAGC [GCGUAG] , the logged FACS-Seq fitted mean (log10) turned out to be -0.637

Numbers sourced from the supplement of paper PMC6757056.
